- method notes: NCI Yeast Anticancer Drug Screen. Data for the rad50 strain (AID 155);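 further: 0% = growth of vehicle-only cultures of the same strain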
- assay conditions: S. cerevisiae rad50 strain growth inhibition; at 50.0 µM
This is part of a sample that, as a whole, favours compounds with a hit. Of some 79,000 tested, about 15% had one in any assay. The source made the active and inactive calls. No stated cut-off is given here; in the data, active means growth inhibition above about 70%; inactive means the rest.
Respond using exactly one of the listed classes: TRUE for active, FALSE for inactive

*Q* Please indicate how the test categorized "C[OH2+].[Cl][Cu+].[Cl][Cu+].[NH-]CCC([OH2+])CC[NH-]" .
*A* FALSE

*Q* // return assay outcome for "CCCCCCCCCCCCCCCC/C(=C\c1ccc2ccccc2c1)[N+](=O)[O-]"
*A* FALSE

*Q* Identify the outcome logged in this assay for the compound shown: "O=[N+]([O-])c1cc2no[n+]([O-])c2cc1N1CCOCC1"
*A* TRUE

*Q* How did this test come out for "CCOC(=O)C(C=C(C)C)(CC)C(=O)OCC" ?
*A* FALSE

*Q* Short answer needed: outcome of this test for "Brc1c(-c2ccccc2)oc2nc3ccccc3nc12" ?
*A* FALSE

*Q* Write down the call the test reported for this compound. Item: CC[N+]1(C)CC2CCC1C2 (centres undefined)
*A* FALSE

*Q* What outcome does the record of this test show for "CSc1ncc(CO)c(Nc2ccc(F)cc2)n1" ?
*A* FALSE

*Q* Name the outcome recorded for COC(=O)/C(C)=C/C=C/C(OC)C(OC(N)=O)/C(C)=C/C(C)C(O)C(CC(C)CC1=C(N)C(=O)C=C(N)C1=O)OC (centres undefined) in the assay.
*A* FALSE

*Q* Look up the recorded call for "O=[N+]([O-])c1ccc(N=P(c2ccccc2)(c2ccccc2)c2ccccc2)n2nnnc12" in this test.
*A* FALSE

*Q* Please state the recorded outcome for this compound: "O=S(=O)(O)c1cc(O)c(N=NC2S(=O)(=O)OCCOS2(=O)=O)c2ccccc12"
*A* FALSE

*Q* Recorded test outcome, item "COc1ccccc1NC(=O)NC1CCCCC1"
*A* FALSE

*Q* Identify the outcome logged in this assay for the compound shown: "CC1=C(c2ccccc2)CON(c2ccccc2)C1"
*A* FALSE

*Q* Outcome? "S=C1NCC(c2ccccc2)CN1"
*A* FALSE

*Q* Field: outcome | Entry: COc1cc(Br)c(C2SCC(=O)N2c2nncs2)cc1OC (centres undefined)
*A* FALSE

*Q* Test call, this compound: "CC(C)(C)NO"
*A* FALSE

*Q* // param item: "COC(=O)c1cccc2c1cc(Br)c1ccccc12" ; yields the recorded call
*A* FALSE

*Q* # outcome recorded in this test, key = "CCCNc1cc2c(cc1Br)-c1ccccc1C2=O"
*A* FALSE

*Q* What outcome does the record of this test show for "Cc1cc(CO)c(O)c(CN(CC(=O)O)CC(=O)O)c1" ?
*A* FALSE

*Q* Entry "CCN(CC)Cc1ccc([NH-])c([NH-])c1.CCN(CC)Cc1ccc([NH-])c([NH-])c1.[Cl][Pt+2][Cl].[Cl][Pt+2][Cl].[Cl][Pt+2][Cl]" : call = ?
*A* FALSE

*Q* GET /call?item= "C/C(=N/S(=O)(=O)c1ccc(C)c(C)c1)OC(C)C" returns the recorded outcome of this test.
*A* FALSE

*Q* // param item: CC(c1ccccc1)C1OCCO1 (centres undefined) ; yields the recorded call
*A* FALSE

*Q* Dear all, I need the recorded test outcome for "CCOC(=O)C(=O)Nc1ccccc1OCC" , thank you.
*A* FALSE

*Q* What did the test return for "O=C(COc1cc(Cl)c(Cl)cc1Cl)Oc1ccccc1" ?
*A* FALSE

*Q* Could you check what this test reported for "COC1(OC)CCC(OC)(OC)C(OC)(OC)C1(OC)OC" ?
*A* FALSE

* * *

- method notes: NCI Yeast Anticancer Drug Screen. Data for the mec2-1 strain (AID 157)
- assay conditions: S. cerevisiae mec2-1 strain, at 50.0 µM, active compounds read high
The panel holds about 79,000 compounds, 15% with a hit somewhere; the sample as a whole holds those more often.
Measured growth inhibition by item
The reply should contain only the number, in %.

Worked examples, 3 compounds total:
| compound | unit spec | growth inhibition |
| --- | --- | --- |
| CCCCCCCCCC(=O)N/N=C\c1cccc2ccccc12 | % | 17.9 |
| O=C(c1ccc(Cl)c(Cl)c1)C(CS(=O)(=O)O)CS(=O)(=O)O (tested in a mixture with another compound) | % | 0.4 |
| COC(=O)/C=C(\C(=O)OC)C(C(=O)c1ccccc1)=P(c1ccccc1)(c1ccccc1)c1ccccc1 | % | 8.7 |

*Q* Consider the compound shown here: "CC(=O)C1(c2ccccc2)C(C)(C)C(C)(C)C(=O)C(C)(C)C1(C)C" What is its recorded growth inhibition?
*A* 7.55

*Q* What value of growth inhibition has been recorded for this entry: CCN(CC)CCC(=O)O[C@H]1CC[C@H](CC(C)[C@H]2CC(=O)C(C)C=C(C)[C@H](OC(=O)CCN(CC)CC)C(OC)C(=O)[C@@H](C)CC(C)/C=C/C=C/C=C(C)C(OC)CC3CC[C@H](C)[C@](O)(O3)C(=O)C(=O)N3CCCCC3C(=O)O2)CC1OC (stereo not given in full)
*A* 91.8

*Q* Given the entry "OC(c1nc2ccccc2s1)(C(F)(F)F)C(F)(F)F" , report its measured growth inhibition.
*A* -20.1

*Q* // returns reported growth inhibition for input "C[CH2][Sn]([CH2]C)([O]C(=O)c1ccc(F)cc1)[O][Sn]([CH2]C)([CH2]C)[O]C(=O)c1ccc(F)cc1"
*A* -2.8

*Q* Item O=C(O)C1NCCC1Oc1ccccc1 (stereo not given) has what recorded growth inhibition?
*A* -3.7

*Q* What value of growth inhibition has been recorded for this entry: O=C(Oc1ccccc1)C(Cc1ccccc1)NC(=O)C(F)(F)F (stereo not given)
*A* 7.7

*Q* What does the record list as growth inhibition for "COc1cc(C)c2cccc(C)c2n1" ?
*A* 3.85

*Q* Fill blank: measured growth inhibition of the compound COCCCC(NC(=O)C(CC(C)C)NC(=O)OCc1ccc(OC)cc1)C(=O)OC (stereo not given) is ____.
*A* -12.9

*Q* Recorded growth inhibition for "Cc1cc2c(cc1C)OC(=O)CC2" , please?
*A* 6.15

*Q* Entry "COc1ccc(-c2nc(N)nc(-c3cc(C)ccc3O)c2Cl)cc1" has what growth inhibition?
*A* -0.45

*Q* Entry "O=C(O)c1ccccc1C(=O)CCC(=O)c1ccccc1C(=O)O" : reported growth inhibition = ?
*A* -6.75

*Q* Form field: reported growth inhibition of C=C1C(=O)OC2C1C(OC(=O)/C(C)=C/C)CC1(C)C(=O)CCC(=C)C21 (stereo not given)
*A* 47

*Q* Consider the compound shown here: C=C(C)C12CC3CC/C(=N/O)C(C1)C3(N1CCOCC1)C/C2=N/O (stereo not given) What is its recorded growth inhibition?
*A* -18.9

* * *

- method notes: NCI Yeast Anticancer Drug Screen. Data for the bub3 strain (AID 167)
- assay conditions: S. cerevisiae bub3 mutant strain, at 50.0 µM, active compounds read high
- Experimental: Growth inhibition of yeast strains with defined genetic alterations is measured as a screen for potential anti-cancer activity. Selected strains with alterations in DNA damage repair or cell cycle control were exposed to compounds and growth inhibition was measured relative to vehicle treated controls. The strain used in this assay is bub3
Compounds without any hit were thinned out: in the full panel of roughly 79,000, 15% have a hit.
# reported growth inhibition; entries follow
Return type: number; implicit unit %.

Recorded growth inhibition, per entry:
| molecule | growth inhibition / % |
| --- | --- |
| Cc1noc(/N=C/c2ccccc2)c1C | 4.4 |
| CC(=O)Nc1ccc[n+](C)c1 | 33.3 |
| CC(C)(CO)C(O)C(=O)NCCO (configuration not stated) | 3.3 |

*Q* Reported growth inhibition, molecule COc1cc2c(c(OC)c1OC)-c1ccc(SC)c(=O)cc1[C@@H](NC1OCC(O)C(O)C1O)CC2 (some centres not stated) : ____
*A* 21.1

*Q* Consider the molecule shown here: NC(=O)CNc1ccc(CC2CCOC2=O)cc1 (configuration not stated) What is its recorded growth inhibition?
*A* 0.6

*Q* What growth inhibition value was documented for this molecule, "O=C(O)CCSCCCCCCCCCCCCSCCC(=O)O" ?
*A* -3.65

*Q* Return reported growth inhibition; argument: O=C1NC(=O)C(=Nc2cccc3c(=O)[nH][nH]c(=O)c23)C(c2nc3ccccc3s2)C1=O (configuration not stated)
*A* -3.05

* * *

- method notes: NCI Yeast Anticancer Drug Screen. Data for the rad50 strain (AID 155);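 further: 0% = growth of vehicle-only cultures of the same strain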
- assay conditions: S. cerevisiae rad50 strain growth inhibition; at 50.0 µM
Compounds without any hit were thinned out: in the full panel of roughly 79,000, 15% have a hit. Activity calls are given as the source filed them. Cut-off read from the data, not from the text of the source: active = growth inhibition above about 70%; inactive = the rest.
Returns: one label drawn from active, inactive

Recorded results for 8 compounds are shown here.
| compound | qualitative label |
| --- | --- |
| Cc1cccc[n+]1CC(=O)c1ccccc1[N+](=O)[O-] | inactive |
| Nc1cc(S(=O)(=O)O)cc2ccc(S(=O)(=O)O)cc12 | inactive |
| CCC1C(C)C=CN1c1nc(N)nc(NS(=O)(=O)c2cc(C)c(Cl)cc2S)n1 (configuration not stated) | inactive |
| O=C(O)C(Cc1ccccc1)c1ccccc1 (configuration not stated) | inactive |
| Cc1ccc(C(=O)/C=C/c2ccco2)cc1 | inactive |
| CN(CCc1ccccn1)C(=S)N/N=C/c1ccccn1 | active |
| CCOC(=O)C(=O)NC12CC3CC(CC(C3)C1)C2 | inactive |
| c1ccc(C2=C(c3ccccc3)C2c2ccccc2)cc1 | inactive |

*Q* Query: recorded result category for "CCC/C=C(\CC)COC(=O)Nc1ccccc1" in this test
*A* inactive

*Q* Look up the recorded call for "O=C(Cc1ccccc1CC(=O)Oc1ccccc1)Oc1ccccc1" in this test.
*A* inactive

*Q* Entry "O=[N+]([O-])c1ccc(-c2cn(-c3ccc(Cl)cc3)cn2)cc1" : call = ?
*A* inactive

*Q* Lab log entry: C=C(CCCC(C)OC(=O)NC(C)c1cccc2ccccc12)[Si](C)(C)C (configuration not stated) — outcome as called in the assay?
*A* inactive
